Source of measurements: the supplement of paper PMC10065799

Would you mind telling me the reported SH2 binding enrichment of each entry?
system_tested: c-Src SH2;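 note: peptide library displayed on the E. coli surface as eCPX fusions, selected cells deep-sequenced, score is each peptide's frequency after selection divided by its frequency in the input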
protocol_details: SH2 binding enrichment of the phosphorylated peptide, bacterial display (enrichment ratio); higher = better substrate or ligand; peptides without Tyr show the background

STKPQYQPGEN [SRC_Y530_E527K] yielded SH2 binding enrichment of 0.417

# SH2 binding enrichment (sequence: ETALHYIHDGI [GATD3A_Y250] ) is 0.501

SH2 binding enrichment reported for this sequence AEFGLYAAMVR [VSX2_Y222_G223A_YF] : 0.494

response.value for CTTIHYNYMCH [TP53_Y234_N239H] (field: SH2 binding enrichment) = 3.68

The reported value for KRFRIYHLATS [BRCA2_Y3009_YF] in terms of SH2 binding enrichment is 1.24

// sample CRAVKYLQMVG [AVPR2_Y117] , its SH2 binding enrichment was 0.521

Form: sequence = ATDLAYYLVCK [ASL_Y375_R379C] ; SH2 binding enrichment = 0.59

// recorded SH2 binding enrichment for VVEVTYDDVPI [FLNB_Y1308] : 0.519

The recorded SH2 binding enrichment for IGLHAYGDQFR [IDH1_Y135_R132L_YF] is 0.419

sequence LSDGPYSNPYE [EPOR_Y485] , SH2 binding enrichment observed: 5.44

Record summary for MARDIYQASFF [LTK_Y672_R673Q_YF] : reported SH2 binding enrichment = 0.466

Recorded result, PTKNDYWAMPA [WWOX_Y287_L291P] , SH2 binding enrichment: 0.586

The reported SH2 binding enrichment of the sequence LAEMNYVHRDL [EPHB1_Y740] was 0.403

Lab note: TQKLAYVELQQ [CENPF_Y700_M701V] gave SH2 binding enrichment of 0.932
